I'd appreciate it if you could supply self-cleavage values for the items below.
B1: Hairpin Ribozyme (parent)
chain: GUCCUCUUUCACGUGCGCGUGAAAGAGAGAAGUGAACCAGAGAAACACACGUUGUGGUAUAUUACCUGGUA

- Variants of: B1
- assayComment: self-cleavage, relative activity (ratio to wild type); higher = more cleavage; co-transcriptional
Answers are plain numbers.

variantName	self-cleavage
A39U A71U	0.19
G68U G69C	0.136
U67C A71G	0.132

# return self-cleavage for each item in the list
1. A11G A64C
2. C10G A39G
3. C38U U58A
4. C46A U60C
5. A64C G68C

Reply |
1. 0.114
2. 0.267
3. 0.333
4. 0.277
5. 0.273
